Recorded T4EQ concentration (nmol/g dust) by entry
- assaySystem: TTR (Homo sapiens, UniProt P02766)
- testSummary: FITC-T4 TTR competitive binding assay
- conditionInfo: reported concentration of the compound in SRM2585 dust x REP
Just the number please, in nmol/g dust, no unit attached.

Examples with their reported T4EQ concentration (nmol/g dust) follow.
structureAsSmiles	T4EQ concentration (nmol/g dust)
CCCCCCCCCc1ccc(O)cc1	0.946
O=C(O)C(F)(F)C(F)(F)C(F)(F)C(F)(F)C(F)(F)C(F)(F)C(F)(F)C(F)(F)C(F)(F)F	0.001
O=C(O)C(F)(F)C(F)(F)C(F)(F)C(F)(F)C(F)(F)C(F)(F)C(F)(F)F	0.060

Ask | Find the measured T4EQ concentration (nmol/g dust): item `O=C(O)C(F)(F)C(F)(F)C(F)(F)C(F)(F)C(F)(F)C(F)(F)F` , target or system TTR (Homo sapiens, UniProt P02766).
Reply | 0.048

====

- assaySystem: TTR (Homo sapiens, UniProt P02766)
- testSummary: FITC-T4 TTR competitive binding assay
- conditionInfo: individual compounds; 30 nM TTR, 110 nM FITC-T4, 2 h at 4°C, pH 8.0; — = 50% inhibition level not reached (footnote g); read-out: IC50
Recorded pIC50 by entry
FYI, pIC50 means -log10 of a concentration in mol per litre.

Examples with their reported pIC50 follow.
structureAsSmiles	assaySystem	pIC50
O=C(O)C(F)(F)C(F)(F)C(F)(F)C(F)(F)C(F)(F)F	TTR (Homo sapiens, UniProt P02766)	5.25
O=C(O)C(F)(F)C(F)(F)C(F)(F)C(F)(F)C(F)(F)C(F)(F)C(F)(F)C(F)(F)F	TTR (Homo sapiens, UniProt P02766)	5.96

Ask | Fill in: pIC50 of `O=S(=O)(O)C(F)(F)C(F)(F)C(F)(F)C(F)(F)F` is ___
Reply | 5.01

Ask | Fill in: pIC50 of `O=S(=O)(O)C(F)(F)C(F)(F)C(F)(F)C(F)(F)C(F)(F)C(F)(F)C(F)(F)C(F)(F)F` is ___
Reply | 6.60

Ask | Fill in: pIC50 of `Oc1cc(Br)cc(Br)c1Oc1cc(Br)c(Br)cc1Br` is ___
Reply | 7.70

Ask | Fill in: pIC50 of `Oc1c(Cl)cc(-c2ccc(Cl)c(Cl)c2)c(Cl)c1Cl` is ___
Reply | 7.17

====

- assaySystem: TTR (Homo sapiens, UniProt P02766)
- testSummary: FITC-T4 TTR competitive binding assay
- conditionInfo: inhibitor-TTR dissociation constant converted from IC20 (Equation 4); 4°C; read-out: Ki
Recorded pKi by entry
FYI, pKi means -log10 of a concentration in mol per litre.

compound	pKi
Clc1ccc(-c2cc(Cl)c(Cl)cc2Cl)cc1Cl [CB-118, 2,3ʹ,4,4ʹ,5-pentachlorobiphenyl]	6.49
Oc1cc(Br)cc(Br)c1Oc1ccc(Br)cc1Br [6-OH-BDE-47, 6-OH-2,2ʹ,4,4ʹ-tetrabromodiphenyl ether]	7.27
NS(=O)(=O)C(F)(F)C(F)(F)C(F)(F)C(F)(F)C(F)(F)C(F)(F)C(F)(F)C(F)(F)F [FOSA, perfluorooctane sulfonamide]	6.40

Ask | Fill in: pKi of Oc1c(Cl)cc(-c2ccc(Cl)c(Cl)c2)c(Cl)c1Cl [4-OH-CB-107, 4-OH-2,3,3ʹ,4ʹ,5-pentachlorobiphenyl] is ___
Reply | 7.23

Ask | Fill in: pKi of CCCOC(=O)c1ccc(O)cc1 [Propylparaben, propyl 4-hydroxybenzoate] is ___
Reply | 4.92

====

Recorded pKi by entry
- assaySystem: TTR (Homo sapiens)
- testSummary: FITC-T4 TTR competitive binding assay
- conditionInfo: inhibitor-TTR dissociation constant converted from IC20 (Equation 4); 4°C; read-out: Ki
FYI, pKi means -log10 of a concentration in mol per litre.

Examples with their reported pKi follow.
molecule	pKi
Oc1cc(Br)cc(Br)c1Oc1cc(Br)c(Br)cc1Br [6ʹ-OH-BDE-99]	8.35
O=S(=O)(O)C(F)(F)C(F)(F)C(F)(F)C(F)(F)F [PFBS, perfluorobutane sulfonic acid]	5.29
Oc1cc(Oc2ccc(Br)cc2Br)c(Br)cc1Br [5-OH-BDE-47, 5-OH-2,2ʹ,4,4ʹ-tetrabromodiphenyl ether]	7.80

As a next step, examine the molecule that follows.
Ask | Fill in: pKi of Oc1c(Cl)c(Cl)c(-c2cc(Cl)c(Cl)cc2Cl)c(Cl)c1Cl [4-OH-CB-187] is ___
Reply | 8.40

====

Recorded T4EQ concentration (nmol/g dust) by entry
- assaySystem: TTR (Homo sapiens, UniProt P02766)
- testSummary: FITC-T4 TTR competitive binding assay
- conditionInfo: reported concentration of the compound in SRM2585 dust x REP
Just the number please, in nmol/g dust, no unit attached.

Examples with their reported T4EQ concentration (nmol/g dust) follow.
compound	assaySystem	readoutUnit	T4EQ concentration (nmol/g dust)
Brc1ccc(Oc2cc(Br)c(Br)cc2Br)c(Br)c1 [BDE-99, 2,2ʹ,4,4ʹ,5-pentabromodiphenyl ether]	TTR (Homo sapiens, UniProt P02766)	nmol/g dust	0.458
Brc1ccc(Oc2ccc(Br)cc2Br)c(Br)c1 [BDE-47, 2,2ʹ,4,4ʹ-tetrabromodiphenyl ether]	TTR (Homo sapiens, UniProt P02766)	nmol/g dust	0.103
Clc1ccc(-c2cc(Cl)c(Cl)cc2Cl)cc1Cl [CB-118, 2,3ʹ,4,4ʹ,5-pentachlorobiphenyl]	TTR (Homo sapiens, UniProt P02766)	nmol/g dust	0.011
O=S(=O)(O)C(F)(F)C(F)(F)C(F)(F)C(F)(F)C(F)(F)C(F)(F)C(F)(F)C(F)(F)F [PFOS, perfluorooctane sulfonic acid]	TTR (Homo sapiens, UniProt P02766)	nmol/g dust	1.201

As a next step, examine the compound that follows.
Ask | Find the measured T4EQ concentration (nmol/g dust): item O=C(O)C(F)(F)C(F)(F)C(F)(F)C(F)(F)C(F)(F)C(F)(F)C(F)(F)C(F)(F)F [PFNA, perfluorononanoic acid] , target or system TTR (Homo sapiens, UniProt P02766).
Reply | 0.013

====

- assaySystem: TTR (Homo sapiens)
- testSummary: Saturation experiment for the FITC-T4-TTR complex
- conditionInfo: 30 nM TTR, FITC-T4 0 to 1,000 nM, no inhibitor
propertyMeasured: Kd
Answer as a quantity: numeral, then unit.

Ask | Fill in: Kd of O=C1OC2(c3ccc(O)cc3Oc3cc(O)ccc32)c2ccc(NC(=S)NC(Cc3cc(I)c(Oc4cc(I)c(O)c(I)c4)c(I)c3)C(=O)O)cc21 (stereo not shown) is ___
Reply | 140 nM

====

- assaySystem: UniProtKB P02766
- testSummary: FITC-T4 TTR competitive binding assay
- conditionInfo: 20% inhibition of FITC-T4 binding to TTR; 30 nM TTR, 110 nM FITC-T4, 2 h at 4°C, pH 8.0
Recorded IC20 by entry

structureAsSmiles	propertyMeasured	result
Oc1c(Cl)cc(-c2ccc(Cl)c(Cl)c2)c(Cl)c1Cl	IC20	0.034 µM

Ask | Fill in: IC20 of `Oc1c(Cl)c(Cl)c(-c2cc(Cl)c(Cl)cc2Cl)c(Cl)c1Cl` is ___
Reply | 0.0082 µM

Ask | Fill in: IC20 of `O=C(O)C(F)(F)C(F)(F)C(F)(F)C(F)(F)C(F)(F)F` is ___
Reply | 1.6 µM

Ask | Fill in: IC20 of `Oc1cc(Br)cc(Br)c1Oc1ccc(Br)cc1Br` is ___
Reply | 0.031 µM

====

- assaySystem: TTR (Homo sapiens)
- testSummary: FITC-T4 TTR competitive binding assay
- conditionInfo: reported concentration of the compound in SRM2585 dust x REP
Recorded T4EQ concentration (nmol/g dust) by entry
Just the number please, in nmol/g dust, no unit attached.

Examples with their reported T4EQ concentration (nmol/g dust) follow.
molecule	assaySystem	T4EQ concentration (nmol/g dust)
O=S(=O)(O)C(F)(F)C(F)(F)C(F)(F)C(F)(F)F	TTR (Homo sapiens)	0.002
O=C(O)C(F)(F)C(F)(F)C(F)(F)C(F)(F)C(F)(F)C(F)(F)C(F)(F)C(F)(F)C(F)(F)C(F)(F)F	TTR (Homo sapiens)	0.002
O=S(=O)(O)C(F)(F)C(F)(F)C(F)(F)C(F)(F)C(F)(F)C(F)(F)F	TTR (Homo sapiens)	0.561
O=C(O)C(F)(F)C(F)(F)C(F)(F)C(F)(F)C(F)(F)F	TTR (Homo sapiens)	0.011

Ask | Fill in: T4EQ concentration (nmol/g dust) of NS(=O)(=O)C(F)(F)C(F)(F)C(F)(F)C(F)(F)C(F)(F)C(F)(F)C(F)(F)C(F)(F)F [FOSA, perfluorooctane sulfonamide] is ___
Reply | 0.002

Ask | Fill in: T4EQ concentration (nmol/g dust) of `CC(C)(c1cc(Br)c(O)c(Br)c1)c1cc(Br)c(O)c(Br)c1` is ___
Reply | 0.586

Ask | Fill in: T4EQ concentration (nmol/g dust) of `Clc1cc(Cl)c(-c2cc(Cl)c(Cl)cc2Cl)cc1Cl` is ___
Reply | 0.030
